- EXPERIMENT_NOTES: antivirals against arbovirus infection, primary screen, cell-based, full library, 10K replicate subset (AID 1251)
- CONDITION: arbovirus infection cell-based antiviral screen, at 10 µM, active compounds read high
The campaign covered roughly 200,000 compounds. About 720 (0.36%) were called active. What follows is part of a selection rich in actives, with near analogues and random picks from the rest.
Please mark True if the recorded inhibition is equal to or greater than 10%, and False if it falls below.

Study these solved cases before continuing.
| SMILES_STRING | CLASS |
| --- | --- |
| CCOc1cc(/C=C(/C#N)c2ccc(Cl)cc2)cc(Cl)c1OCC(=O)O | True |
| Cc1ccc(C(=O)N/C(=C\c2ccco2)C(=O)N2CCSCC2)cc1C | False |
| Cc1cccc(NC(=O)CSc2nnc(NC(=O)CN3CCOCC3)s2)c1 | False |
| Cc1cccc(CSc2nnc(NC(=O)CSc3nnc(C)s3)s2)c1 | True |

Prompt: Given O=C(CCc1ccccc1)Nc1ncc([N+](=O)[O-])s1 , state whether its inhibition is at least 10%.
Response: True

* * *

- EXPERIMENT_NOTES: antivirals against arbovirus infection, primary screen, cell-based, full library, 10K replicate subset (AID 1251)
- CONDITION: arbovirus infection cell-based antiviral screen, at 10 µM
In all, about 200,000 compounds went through this assay and about 720 (0.36%) were called active. Cut-off read from the data, not from the text of the source: active = inhibition above about 30%; inactive = the rest, inconclusive results apart. The list comes from a sample in which actives are over-represented; it also holds close analogues and randomly drawn compounds.
Field 'call' accepts yes (active), no (inactive)

Study these solved cases before continuing.
| MOLECULE | CLASS |
| --- | --- |
| Cc1ccc(Cl)c(NC(=O)CN2CCN(C=O)CC2)c1 | no |
| Cc1c(Cl)cccc1NC(=S)NCc1ccc2c(c1)OCO2 | no |
| CC/C(=N\NC(=S)NC(C)C)c1ccc(OC(F)F)cc1 | no |
| Cc1ccc(C)n1NC(=O)c1ccc([N+](=O)[O-])cc1 | no |
| Cc1cc(C)c2nc(SCC(=O)N(C)C3CCS(=O)(=O)C3)cc(C)c2c1 (stereo not given) | no |

# next molecule below
Prompt: Returns: the outcome recorded for Cc1ccc(N(CCC(=O)O)S(=O)(=O)c2cccc(C(F)(F)F)c2)cc1 in this assay.
Response: no

* * *

- EXPERIMENT_NOTES: antivirals against arbovirus infection, primary screen, cell-based, full library, 10K replicate subset (AID 1251)
- CONDITION: arbovirus infection cell-based antiviral screen, at 10 µM, active compounds read high
In all, about 200,000 compounds went through this assay and about 720 (0.36%) were called active. Only a selection was taken, and actives are over-represented in it overall.
The entries below come with measured inhibition values attached.
The reply should contain only the number, in %.

| COMPOUND | EXPERIMENTAL_VALUE |
| --- | --- |
| Cc1nc(CNS(=O)(=O)c2cccnc2)cs1 | 32.7 |
| Cc1ccc(-c2csc(NNC(=O)c3ccccc3)n2)cc1 | -29.2 |
| Cc1nc(CNS(=O)(=O)c2ccc(Oc3ccccc3)cc2)cs1 | 10.3 |
| CC(=O)c1cc(C#N)c(SCC(=O)C(C)(C)C)nc1C | -12.4 |
| CCCN(C(=O)CSc1nnnn1C)c1c(N)n(Cc2ccccc2)c(=O)[nH]c1=O | 21.9 |

Prompt: Input CCn1c(SCC(=O)Nc2ccccc2F)nc2c(c1=O)SC(C)C2 (stereo not given) , output reported inhibition.
Response: 13.7

Prompt: Input Cc1ccc2nsnc2c1S(=O)(=O)N1CCCC1C(=O)O (stereo not given) , output reported inhibition.
Response: 1.07

Prompt: Input COc1cc(NC(=O)COc2ccccc2Cl)ccc1NC(=O)C(C)C , output reported inhibition.
Response: -3.4

Prompt: Input CCN(CCO)C(=S)Nc1cc(C(=O)OC)ccc1C(=O)OC , output reported inhibition.
Response: -0.56

Prompt: Input CCCCSc1[nH]c(=O)c(C(=O)OCC)cc1C#N , output reported inhibition.
Response: 39.8

Prompt: Input O=[N+]([O-])c1ccc2oc(-c3cccc(O)c3)nc2c1 , output reported inhibition.
Response: 0.35

Prompt: Input O=c1[nH]c(CN2CCN(S(=O)(=O)c3ccc4c(c3)OCCO4)CC2)nc2sc3c(c12)CCCC3 , output reported inhibition.
Response: 11.3

The measurements presented in this section are drawn from PubChem BioAssay AID1251.
